Data origin: paper PMC8297771

Assay: Four-week oral dose toxicology study in dogs (GLP)
Format: in vivo, beagle dogs
Settings: both sexes, beagle, dog, in vivo; dogs; 4-week once daily oral dose
Procedure: STP0404 was administered orally to 10 or 15 SD rats/sex/group at dose levels of 100, 300 and 600 mg/kg/day for 4 weeks to evaluate its potential toxicity. The reversibility of any effects was also assessed following a 2-week untreated recovery period. […] In addition, plasma STP0404 concentrations were determined using TK satellite animals (3 animals/sex/group) to evaluate systemic exposure of the animals to the test article. […]
MEASURED ATTRIBUTE: NOAEL at 4 weeks (mg/kg)
A number alone suffices; assume mg/kg.

Please give the documented NOAEL at 4 weeks of `Cc1nc2c(c(C)c(C)n2Cc2cnn(C)c2)c(-c2ccc(Cl)cc2)c1[C@H](OC(C)(C)C)C(=O)O`
90
